system: A-431; assay: Antimigratory activity in human A-431 cells assessed as inhibition of scratch at 50 uM measured after 24 hrs by Wound healing assay; assay type: functional
The source made the active and inactive calls. No cut-off for these calls is given here.
reported-endpoint: Activity

[
  {
    "structure-smiles-string": "CCCCCCCCCCCCC/C=C/[C@@H](O)[C@H](CO[C@@H]1O[C@H](CO)[C@@H](O[C@@H]2O[C@H](CO)[C@H](O)[C@H](O[C@]3(C(=O)O)C[C@H](O)[C@@H](NC(=O)c4ccncc4)[C@H]([C@H](O)[C@H](O)CO)O3)[C@H]2O)[C@H](O)[C@H]1O)NC(=O)CCCCCCCCCCCCCCCCC",
    "test-result": "Active"
  },
  {
    "structure-smiles-string": "CCCCCCCCCCCCC/C=C/[C@@H](O)[C@H](CO[C@@H]1O[C@H](CO)[C@@H](O[C@@H]2O[C@H](CO)[C@H](O)[C@H](O[C@]3(C(=O)O)C[C@H](O)[C@@H](NC(=O)c4cccc(F)c4)[C@H]([C@H](O)[C@H](O)CO)O3)[C@H]2O)[C@H](O)[C@H]1O)NC(=O)CCCCCCCCCCCCCCCCC",
    "test-result": "Active"
  },
  {
    "structure-smiles-string": "CCCCCCCCCCCCC/C=C/[C@@H](O)[C@H](CO[C@@H]1O[C@H](CO)[C@@H](O[C@@H]2O[C@H](CO)[C@H](O)[C@H](O[C@]3(C(=O)O)C[C@H](O)[C@@H](NC(=O)c4ccc(C=O)cc4)[C@H]([C@H](O)[C@H](O)CO)O3)[C@H]2O)[C@H](O)[C@H]1O)NC(=O)CCCCCCCCCCCCCCCCC",
    "test-result": "Active"
  },
  {
    "structure-smiles-string": "CCCCCCCCCCCCC/C=C/[C@@H](O)[C@H](CO[C@@H]1O[C@H](CO)[C@@H](O[C@@H]2O[C@H](CO)[C@H](O)[C@H](O[C@]3(C(=O)O)C[C@H](O)[C@@H](NC(=O)c4cccc(I)c4)[C@H]([C@H](O)[C@H](O)CO)O3)[C@H]2O)[C@H](O)[C@H]1O)NC(=O)CCCCCCCCCCCCCCCCC",
    "test-result": "46.7%"
  }
]

====

assay: Cytotoxicity against mouse Neuro2a cells measured after 24 hrs by MTT assay; type: toxicity, cell-based, N2a
IC50 at 24 h values, listed per item

[
  {
    "structure-smiles-string": "CCCCCCCCCCCCC/C=C/[C@@H](O)[C@H](CO[C@@H]1O[C@H](CO)[C@@H](O[C@@H]2O[C@H](CO)[C@H](O)[C@H](O[C@]3(C(=O)O)C[C@H](O)[C@@H](NC(=O)c4cccc(Br)c4)[C@H]([C@H](O)[C@H](O)CO)O3)[C@H]2O)[C@H](O)[C@H]1O)NC(=O)CCCCCCCCCCCCCCCCC",
    "IC50 at 24 h": "> 200 µM"
  },
  {
    "structure-smiles-string": "CCCCCCCCCCCCC/C=C/[C@@H](O)[C@H](CO[C@@H]1O[C@H](CO)[C@@H](O[C@@H]2O[C@H](CO)[C@H](O)[C@H](O[C@]3(C(=O)O)C[C@H](O)[C@@H](NC(=O)c4ccc(C=O)cc4)[C@H]([C@H](O)[C@H](O)CO)O3)[C@H]2O)[C@H](O)[C@H]1O)NC(=O)CCCCCCCCCCCCCCCCC",
    "IC50 at 24 h": "> 200 µM"
  }
]
